// inhibition lookup, one value per entry
- ASSAY_TARGET: MAP kinase-interacting serine/threonine-protein kinase 2 (Homo sapiens) (UniProt Q9HBH9)
- Sequence (Q9HBH9 whole entry, looked up): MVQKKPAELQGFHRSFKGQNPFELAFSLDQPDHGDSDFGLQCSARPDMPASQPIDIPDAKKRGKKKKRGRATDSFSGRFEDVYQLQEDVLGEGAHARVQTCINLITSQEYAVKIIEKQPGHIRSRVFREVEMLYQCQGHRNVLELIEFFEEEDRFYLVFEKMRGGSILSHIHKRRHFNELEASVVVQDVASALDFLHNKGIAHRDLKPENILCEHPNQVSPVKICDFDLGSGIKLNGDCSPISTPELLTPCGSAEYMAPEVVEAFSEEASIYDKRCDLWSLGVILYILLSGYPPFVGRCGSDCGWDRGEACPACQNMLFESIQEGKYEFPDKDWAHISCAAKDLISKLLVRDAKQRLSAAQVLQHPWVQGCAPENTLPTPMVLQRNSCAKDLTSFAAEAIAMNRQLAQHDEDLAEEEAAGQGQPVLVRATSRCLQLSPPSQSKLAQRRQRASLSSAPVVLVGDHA
- RUN_PARAMETERS: at 1 µM
- Description: GSK_PKIS: MNK2 mean inhibition at 1 uM [Nanosyn]
# number only, unit % dropped from output

Dear colleague, please send me the reported inhibition for Cc1ccc(O)cc1Nc1ccnc2cc(-c3ccccn3)ccc12 when you can. 4.94

Identify inhibition associated with the compound Fc1cccc(COc2ccc(Nc3ncnc4sc(-c5ccco5)cc34)cc2Cl)c1 15.1

Name the recorded inhibition of the item COc1ccc(-c2oc3ncnc(N)c3c2-c2ccc(NC(=O)Nc3cc(C(F)(F)F)ccc3F)cc2)cc1 in your answer. 56.3

Give the reported value of inhibition for this record: CC(=O)NCc1cccc(C#Cc2cncnc2Nc2ccc(OCc3cccc(F)c3)c(Cl)c2)c1 11.8

Provide measured inhibition value, entry: COc1ccc(-c2nn3ncccc3c2-c2ccnc(Nc3ccc4c(c3)OCCO4)n2)cc1 1.25

Output measured inhibition for this item: COc1cc2c(cc1Nc1nc(Nc3ccsc3C(N)=O)c3cc[nH]c3n1)N(C(=O)CN(C)C)CCC2(C)C 3.03

Dear colleague, please send me the reported inhibition for COC(=O)Nc1nc2ccc(S(=O)(=O)c3ccc(NC(=O)Nc4cc(C(F)(F)F)ccc4F)cc3)cc2[nH]1 when you can. 0.01

Tell me its inhibition given CCn1c(-c2nonc2N)nc2ccccc21 as the entry. 14.7

Next:
Assign inhibition to the following record: CNC(=O)c1cc(-c2ccc(F)cc2)cc(-c2ccc(S(=O)(=O)N3CCCC3)cc2)c1N -0.59
